System: PC-3 prostate
Assay: NCI tumour cell line growth inhibition, 48 h
Recorded TGI by entry
Provide the reading as a plain figure in µM.

Below, each entry is followed by its recorded TGI result.
[[record]]
molecule = "CC(CC(=O)CO[C@H]1[C@H](O)[C@@H](O)[C@@H](O)[C@@H]2NC(=O)c3c(cc4c(c3O)OCO4)[C@H]21)OC1OC(CO)C(O)C(O)C1O (some centres undefined)"
readout = "TGI"
measured = 1.48

[[record]]
molecule = "COC(=O)[C@]12CC[C@@H](C)[C@H](C)[C@@H]1C1=CC[C@@H]3[C@@]4(C)CC(=O)[C@H](O)[C@@]5(C)COC(=C45)C[C@@]3(C)[C@]1(C)CC2"
readout = "TGI"
measured = 33.8

[[record]]
molecule = "Cc1ccc(S(=O)(=O)N/N=C/C(Br)=C(/Br)C(=O)O)cc1"
readout = "TGI"
measured = 29.3


Continue with the molecule presented below.
Task item: Output measured TGI for this item: `COc1ccc2c(c1)c1nn(CCN(C)C)c3ccc4c(=O)n(CCN(C)C)c(=O)n2c4c13`
Reply: 0.262
